Reference source for all entries: patent US12122799B2

System: S. chromogenes
assay_protocol: Growth inhibition of Staphylococcus species assay
Format: cell-based
details: read-out: Bacterial IC50 (Mean ± SD) S.c.
reported_metric: pIC50
Hey, just a heads up that pIC50 is the negative log base 10 of the concentration in molar.

Reported pIC50, compound "O=CN(O)CCCP(=O)(O)O" : ____
6.51

====

tgt: recombinant DXR enzyme
assay_protocol: DXR enzyme activity assay
Assay type: biochemical
details: read-out: S. schleiferi IC50 (mean ± SD)
reported_metric: IC50

Reported IC50, molecule O=CN(O)CCCP(=O)(O)O [fosmidomycin] : ____
0.67 µM
